Data credit: patent US10670605B2

Listing: isoTOP-ABPP reactivity profile ratio, O75874_C269 of selected compounds
molecular target: IDH1 C269 (O75874) (Homo sapiens, UniProt O75874); experiment: Competitive isoTOP-ABPP, cell lysates; format: binding; conditions: 500 μm, in-vitro_ramos_231
Sequence (O75874 whole entry): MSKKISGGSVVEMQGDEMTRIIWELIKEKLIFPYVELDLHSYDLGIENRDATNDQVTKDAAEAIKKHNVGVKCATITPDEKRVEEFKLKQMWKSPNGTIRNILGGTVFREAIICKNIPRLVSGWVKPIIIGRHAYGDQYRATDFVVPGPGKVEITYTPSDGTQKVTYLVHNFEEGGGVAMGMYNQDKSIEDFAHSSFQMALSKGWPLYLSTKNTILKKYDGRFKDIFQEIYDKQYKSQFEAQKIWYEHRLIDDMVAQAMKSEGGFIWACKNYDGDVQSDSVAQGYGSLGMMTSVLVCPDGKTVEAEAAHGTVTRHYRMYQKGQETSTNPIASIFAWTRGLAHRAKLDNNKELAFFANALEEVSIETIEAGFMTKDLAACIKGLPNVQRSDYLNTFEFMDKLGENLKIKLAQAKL
measurementType: isoTOP-ABPP reactivity profile ratio, O75874_C269

compound	result
CC1CCc2ccccc2N1C(=O)CCl (stereo not drawn)	20.0
COc1cc(NC(=O)CCl)cc(OC)c1	0.8
O=C(CCl)NC1C(O)OC(CO)C(O)C1O (mixture of isomers)	0.8
C=CC(=O)N(c1ccccc1)C1CCCCC1	0.6
O=C(CCl)N1CCc2cc(Br)ccc21	20.0
Cc1ncc(CO)c(CNC(=O)CCl)c1O	1.1

----------
target: cysteines in MDA-MB-231 and Ramos cells (Homo sapiens); test: Competitive isoTOP-ABPP in situ (fragment-treated cells); format: cell-based; settings: 200 μM, insitu, 231
Short version: isoTOP-ABPP ratio P42166_C561 at least 1 is Y, less is N.

structureSmilesString	classLabel
O=C(CCl)Nc1cccc2ncccc12	Y
O=C(CCl)NC12CC3CC(CC(C3)C1)C2	Y
O=C(CCl)NCCc1c[nH]c2ccccc12	Y
O=C(CCl)N1CCN(S(=O)(=O)c2ccccc2F)CC1	Y
C=CC(=O)N(Cc1cccnc1)c1cc(C(F)(F)F)cc(C(F)(F)F)c1	Y
CC(C)CCOCCNC(=O)CCl	N

----------
molecular target: PRMT1 C109 (Q99873) (Homo sapiens, UniProt Q99873); assay: Competitive isoTOP-ABPP, cell lysates; assay type: binding; settings: 500 μm, in-vitro_ramos_231;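 for isoTOP-ABPP reactivity profile ratio, Q99873 C109: Heavy/light ratio DMSO over fragment-treated so higher means more cysteine engagement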
Sequence (Q99873 whole entry, the tested form may be a part): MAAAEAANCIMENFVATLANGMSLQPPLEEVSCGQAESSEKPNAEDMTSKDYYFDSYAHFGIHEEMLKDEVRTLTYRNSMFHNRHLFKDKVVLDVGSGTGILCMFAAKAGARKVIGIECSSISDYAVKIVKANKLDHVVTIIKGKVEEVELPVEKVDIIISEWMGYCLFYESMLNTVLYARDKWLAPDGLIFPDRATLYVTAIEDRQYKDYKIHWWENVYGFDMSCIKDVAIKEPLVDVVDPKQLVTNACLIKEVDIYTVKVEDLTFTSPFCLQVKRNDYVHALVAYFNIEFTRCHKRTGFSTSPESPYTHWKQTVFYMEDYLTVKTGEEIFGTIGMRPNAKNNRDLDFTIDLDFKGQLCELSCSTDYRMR
List of isoTOP-ABPP reactivity profile ratio, Q99873_C109 values.
measurementType: isoTOP-ABPP reactivity profile ratio, Q99873_C109

structureSmilesString	resultNumber
COc1cc(NC(=O)CCl)cc(OC)c1	1.4
Cc1ccc(C(F)(F)F)cc1NC(=O)CCl	2.0
O=C(CCl)Nc1ccc(-c2ccccc2)cc1	0.9
CCCN(C(=O)CCl)c1c(N)n(CCC)c(=O)[nH]c1=O	1.0
C=CC(=O)N1CCC(Cc2ccccc2)CC1	0.9
C=CC(=O)N(c1ccccc1)C1CCCCC1	0.8

----------
This section presents compounds with their documented isoTOP-ABPP ratio P31943_C267 values.
molecular target: cysteines in MDA-MB-231 and Ramos cells (Homo sapiens, UniProt P31943); experiment: Competitive isoTOP-ABPP in situ (fragment-treated cells); format: cell-based; conditions: 200 μM, insitu, 231
Sequence (P31943 whole entry, the tested form may be a part): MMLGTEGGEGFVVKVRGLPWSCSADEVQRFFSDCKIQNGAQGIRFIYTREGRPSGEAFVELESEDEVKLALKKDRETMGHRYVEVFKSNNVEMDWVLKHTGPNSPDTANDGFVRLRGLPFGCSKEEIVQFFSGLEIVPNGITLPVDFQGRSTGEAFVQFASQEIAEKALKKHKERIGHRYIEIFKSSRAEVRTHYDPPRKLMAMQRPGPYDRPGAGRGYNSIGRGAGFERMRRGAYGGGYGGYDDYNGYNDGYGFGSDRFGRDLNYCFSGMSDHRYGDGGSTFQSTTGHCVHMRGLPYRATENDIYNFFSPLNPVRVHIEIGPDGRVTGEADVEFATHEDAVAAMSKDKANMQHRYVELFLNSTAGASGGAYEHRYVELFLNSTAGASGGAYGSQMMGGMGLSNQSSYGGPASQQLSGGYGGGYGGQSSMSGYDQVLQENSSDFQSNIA
measurementType: isoTOP-ABPP ratio P31943_C267

compound	measurementType	resultNumber
O=C(CCl)NC12CC3CC(CC(C3)C1)C2	isoTOP-ABPP ratio P31943_C267	1.5
CC(C)CCOCCNC(=O)CCl	isoTOP-ABPP ratio P31943_C267	1.1
O=C(CCl)NC(=O)NC12CC3CC(CC(C3)C1)C2	isoTOP-ABPP ratio P31943_C267	5.0
O=C(CCl)Nc1cccc2ncccc12	isoTOP-ABPP ratio P31943_C267	1.3
Cc1ccc(C=C(C#N)C(=O)NCCN2CCOCC2)cc1	isoTOP-ABPP ratio P31943_C267	1.0
C=CC(=O)N(Cc1cccnc1)c1cc(C(F)(F)F)cc(C(F)(F)F)c1	isoTOP-ABPP ratio P31943_C267	0.7
C=CC(=O)Nc1cc(F)c(N2CCN(C(=O)OC(C)(C)C)CC2)c(F)c1	isoTOP-ABPP ratio P31943_C267	1.2
CC1CCc2ccccc2N1C(=O)CCl (stereo not shown)	isoTOP-ABPP ratio P31943_C267	3.6
O=C(CCl)N1CCN(S(=O)(=O)c2ccccc2F)CC1	isoTOP-ABPP ratio P31943_C267	4.8
O=C(CCl)NCCc1c[nH]c2ccccc12	isoTOP-ABPP ratio P31943_C267	1.1

----------
# pIC50 listing for each entry below
molecular target: pro-CASP8 (Homo sapiens, UniProt Q14790, D374A/D384A); construct: a truncated CASP8 (residues 217-479) without the CARD domain; His6 (C); assay: Click probe 61 labeling of pro-CASP8 and its competition; conditions: 300 nM protein in MDA-MB-231 lysate; read-out: apparent IC50 for blockade of 61 labeling of pro-CASP8
Sequence (Q14790 217-479 D374A/D384A): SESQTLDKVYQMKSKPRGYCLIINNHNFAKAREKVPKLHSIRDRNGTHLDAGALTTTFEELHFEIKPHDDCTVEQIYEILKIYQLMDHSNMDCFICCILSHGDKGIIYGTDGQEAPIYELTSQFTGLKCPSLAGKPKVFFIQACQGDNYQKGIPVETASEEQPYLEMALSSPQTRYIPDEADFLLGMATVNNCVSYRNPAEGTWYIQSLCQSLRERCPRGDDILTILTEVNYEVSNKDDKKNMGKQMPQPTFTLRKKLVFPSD
pIC50: −log10 of the molar value.
measurementType: pIC50

structureSmilesString	resultNumber
O=C(c1ccc(N2CCOCC2)cc1)N1CCC[C@H](N(C(=O)CCl)c2ccccc2)C1	4.82
O=C(c1ccc(N2CCOCC2)cc1)N1CCC[C@@H](N(C(=O)CCl)c2ccccc2)C1	6.15

----------
Molecular target: cysteines in MDA-MB-231 and Ramos cells (Homo sapiens, UniProt Q09161)
Sequence (Q09161 1-790): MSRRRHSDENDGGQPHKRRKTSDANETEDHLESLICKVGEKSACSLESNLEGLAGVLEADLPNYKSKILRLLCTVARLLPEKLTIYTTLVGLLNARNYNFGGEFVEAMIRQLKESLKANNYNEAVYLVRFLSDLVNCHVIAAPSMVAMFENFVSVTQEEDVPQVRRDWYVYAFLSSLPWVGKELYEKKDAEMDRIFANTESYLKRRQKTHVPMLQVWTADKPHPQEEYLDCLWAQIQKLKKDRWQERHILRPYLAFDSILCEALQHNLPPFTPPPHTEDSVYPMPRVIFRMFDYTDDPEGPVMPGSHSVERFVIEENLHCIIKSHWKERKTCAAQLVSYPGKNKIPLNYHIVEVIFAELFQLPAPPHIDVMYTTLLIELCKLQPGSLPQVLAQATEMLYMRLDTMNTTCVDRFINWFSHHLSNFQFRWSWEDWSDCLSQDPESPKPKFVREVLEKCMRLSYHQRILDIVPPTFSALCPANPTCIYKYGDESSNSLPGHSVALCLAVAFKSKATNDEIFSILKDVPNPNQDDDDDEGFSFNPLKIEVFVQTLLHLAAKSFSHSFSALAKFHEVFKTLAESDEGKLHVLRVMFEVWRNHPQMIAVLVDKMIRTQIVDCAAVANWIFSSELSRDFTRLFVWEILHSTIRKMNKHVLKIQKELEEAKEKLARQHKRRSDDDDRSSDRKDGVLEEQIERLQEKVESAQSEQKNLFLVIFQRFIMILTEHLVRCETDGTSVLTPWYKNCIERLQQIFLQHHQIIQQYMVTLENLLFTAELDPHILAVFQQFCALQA
Experiment: Competitive isoTOP-ABPP in situ (fragment-treated cells)
Type: cell-based
Conditions: 200 μM, insitu, 231
Strictly below 1 in isoTOP-ABPP ratio Q09161_C44: t. Otherwise: f.

compound	classLabel
O=C(CCl)Nc1cccc2ncccc12 [compound 51]	f
O=C(CCl)NC12CC3CC(CC(C3)C1)C2 [compound 21]	f
O=C(CCl)N1CCN(S(=O)(=O)c2ccccc2F)CC1 [compound 10]	f
Cc1ccc(C=C(C#N)C(=O)NCCN2CCOCC2)cc1 [compound 41]	t
O=C(CCl)NC(=O)NC12CC3CC(CC(C3)C1)C2 [compound 12]	f
CC(C)CCOCCNC(=O)CCl [compound 27]	t
CC1CCc2ccccc2N1C(=O)CCl (stereo not shown) [compound 45]	f
C=CC(=O)N(Cc1cccnc1)c1cc(C(F)(F)F)cc(C(F)(F)F)c1 [compound 31]	t
C=CC(=O)Nc1cc(F)c(N2CCN(C(=O)OC(C)(C)C)CC2)c(F)c1 [compound 38]	f

----------
molecular target: PDIA6 C55 (Q15084) (Homo sapiens); assay: Competitive isoTOP-ABPP, cell lysates; type: binding; settings: 500 μm in-vitro ramos
Sequence (Q15084 20-440): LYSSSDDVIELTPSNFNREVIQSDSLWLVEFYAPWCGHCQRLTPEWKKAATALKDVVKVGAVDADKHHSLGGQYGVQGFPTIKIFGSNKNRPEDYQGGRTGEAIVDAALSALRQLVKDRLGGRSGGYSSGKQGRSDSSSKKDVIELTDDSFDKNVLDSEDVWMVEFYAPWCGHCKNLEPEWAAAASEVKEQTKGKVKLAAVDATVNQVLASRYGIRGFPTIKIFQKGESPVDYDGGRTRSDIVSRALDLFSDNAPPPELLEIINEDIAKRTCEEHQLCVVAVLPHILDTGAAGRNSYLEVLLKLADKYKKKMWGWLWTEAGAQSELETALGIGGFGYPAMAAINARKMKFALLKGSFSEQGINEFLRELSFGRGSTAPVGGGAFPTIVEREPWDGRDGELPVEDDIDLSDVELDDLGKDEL
measurementType: isoTOP-ABPP ratio (reactivity profile), Q15084_C55

compound	resultNumber
COc1ccccc1OCCNC(=O)CCl	1.5
CC(C)CCOCCNC(=O)CCl	1.2
O=C(CCl)NC12CC3CC(CC(C3)C1)C2	2.1
CC(Br)C(=O)Nc1cc(C(F)(F)F)cc(C(F)(F)F)c1 (centres unmarked)	1.3
O=C(CCl)N1CCC(C(O)(c2ccccc2)c2ccccc2)CC1	2.0
CCN(CC)c1ccc(S(N)(=O)=O)cc1NC(=O)CCl	2.2
O=C(CCl)N1CCOCC1	1.6
O=C(CCl)N1CCN(CC(=O)N2CCOCC2)CC1	1.3
C=CC(=O)N(Cc1cccnc1)c1ccc(Oc2ccccc2)c(C(F)(F)F)c1	1.0
N#C/C(=C\c1cc(C(F)(F)F)cc(C(F)(F)F)c1)C(N)=O	1.0
O=C(/C=C/c1ccccc1)Nc1cc(C(F)(F)F)cc(C(F)(F)F)c1	0.9

----------
target: cysteines in MDA-MB-231 and Ramos cells (Homo sapiens); test: Competitive isoTOP-ABPP in situ (fragment-treated cells); format: cell-based; settings: 200 μM, insitu, ramos

structureSmilesString	targetSystem	isoTOP-ABPP ratio P78417_C32
O=C(CCl)N1CCN(CC(=O)N2CCOCC2)CC1	cysteines in MDA-MB-231 and Ramos cells (Homo sapiens)	20.0
C=CC(=O)N(Cc1cccnc1)c1cc(C(F)(F)F)cc(C(F)(F)F)c1	cysteines in MDA-MB-231 and Ramos cells (Homo sapiens)	2.6
O=C(CCl)N1CCN(S(=O)(=O)c2ccccc2F)CC1	cysteines in MDA-MB-231 and Ramos cells (Homo sapiens)	20.0
O=C(CCl)NCCc1c[nH]c2ccccc12	cysteines in MDA-MB-231 and Ramos cells (Homo sapiens)	20.0
